All figures here come from patent US20240270821A1.

Molecular target: human GLP1-R (SNAP-GLP-1R expressed in HEK293 cells) (human) (UniProt P43220)
Sequence (P43220 24-463): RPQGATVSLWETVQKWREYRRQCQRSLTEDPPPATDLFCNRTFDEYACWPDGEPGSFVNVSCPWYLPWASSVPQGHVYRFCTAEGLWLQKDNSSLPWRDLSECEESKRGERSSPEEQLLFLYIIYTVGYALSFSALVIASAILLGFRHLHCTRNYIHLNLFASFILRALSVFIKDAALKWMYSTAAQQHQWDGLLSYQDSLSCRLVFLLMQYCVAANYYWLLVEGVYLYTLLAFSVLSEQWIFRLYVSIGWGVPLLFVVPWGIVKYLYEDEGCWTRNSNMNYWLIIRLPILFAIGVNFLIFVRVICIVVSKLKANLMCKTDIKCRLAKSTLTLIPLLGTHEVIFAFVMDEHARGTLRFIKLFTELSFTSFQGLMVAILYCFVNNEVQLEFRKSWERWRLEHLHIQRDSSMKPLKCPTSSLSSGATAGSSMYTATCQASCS
Assay: cell-based or functional assay
So I've got a bunch of binders here, and I need their GLP1R Internalization EC50 values.
Give the number; nM is assumed, so skip it.

Exam item: For the binder YXQGTFTSDFSKXLDKKAQXAFIEYLLAGGPSSGAPPPGGE (synthetic construct; SITE 2: note = 2-Aminoisobutyric Acid; SITE 13: note = alpha-methyl-leucine; SITE 17: note = Lysine is chemically modified through conjugation of the epsilon-amino group of the Lysine side chain with (2-[2-(2-Amino-ethoxy)-ethoxy]-acetyl)-(gamma-Glu)-CO-(CH2) 18-CO2H; SITE 20: n) [Example 15] , what GLP1R Internalization EC50 is on record?
Marked response: 79

Exam item: Consider next the binder YXQGTFTSDFSXXLDKKAQXAFIEYLLAGGPSSGEPPPSGE (synthetic construct; SITE 2: note = 2-Aminoisobutyric Acid; SITE 12: note = L-ornithine; SITE 13: note = alpha-methyl-leucine; SITE 17: note = Lysine is chemically modified through conjugation of the epsilon-amino group of the Lysine side chain with (2-[2-(2-Amino-ethoxy)-ethoxy]-acetyl)-(gamma-Glu)) [Example 97] in the same way.
Marked response: 51.9

Exam item: Consider next the binder YXQGTFTSDFSKXLDKKAQXAFIEWLLAGGPSSGEPPPSGE (synthetic construct; SITE 2: note = 2-Aminoisobutyric Acid; SITE 13: note = alpha-methyl-leucine; SITE 17: note = Lysine is chemically modified through conjugation of the epsilon-amino group of the Lysine side chain with (2-[2-(2-Amino-ethoxy)-ethoxy]-acetyl)-(gamma-Glu)-CO-(CH2) 18-CO2H; SITE 20: n) [Example 21] in the same way.
Marked response: 87.6

Exam item: Consider next the binder YXQGTFTSDFSKXLDKKAQXAFIEWLLEGGPSSGAPPPSEG (synthetic construct; SITE 2: note = 2-Aminoisobutyric Acid; SITE 13: note = alpha-methyl-leucine; SITE 17: note = Lysine is chemically modified through conjugation of the epsilon-amino group of the Lysine side chain with (2-[2-(2-Amino-ethoxy)-ethoxy]-acetyl)-(gamma-Glu)-CO-(CH2) 18-CO2H; SITE 20: n) [Example 37] in the same way.
Marked response: 51.6

Exam item: Consider next the binder YXQGTFTSDFSKXLDKKAQXAFIEYLLAGGPSSGEPPPSEE (synthetic construct; SITE 2: note = 2-Aminoisobutyric Acid; SITE 13: note = alpha-methyl-leucine; SITE 17: note = Lysine is chemically modified through conjugation of the epsilon-amino group of the Lysine side chain with (2-[2-(2-Amino-ethoxy)-ethoxy]-acetyl)-(gamma-Glu)-CO-(CH2) 18-CO2H; SITE 20: n) [Example 4] in the same way.
Marked response: 49.1

Exam item: Consider next the binder YXQGTFTSDFSXXLDKKAQXAFIEYLLAGGPSSGEPPPEGE (synthetic construct; SITE 2: note = 2-Aminoisobutyric Acid; SITE 12: note = L-ornithine; SITE 13: note = alpha-methyl-leucine; SITE 17: note = Lysine is chemically modified through conjugation of the epsilon-amino group of the Lysine side chain with (2-[2-(2-Amino-ethoxy)-ethoxy]-acetyl)-(gamma-Glu)) [Example 98] in the same way.
Marked response: 56
